Numbers sourced from patent US20260109763A1.

- assayed target: T1, human PILRA R78 on cells (human, UniProt Q9UKJ1 20-303)
- T1 construct: also called hPILRA R78; PILRA 78R
- T1 sequence (Q9UKJ1 20-303 limits assumed): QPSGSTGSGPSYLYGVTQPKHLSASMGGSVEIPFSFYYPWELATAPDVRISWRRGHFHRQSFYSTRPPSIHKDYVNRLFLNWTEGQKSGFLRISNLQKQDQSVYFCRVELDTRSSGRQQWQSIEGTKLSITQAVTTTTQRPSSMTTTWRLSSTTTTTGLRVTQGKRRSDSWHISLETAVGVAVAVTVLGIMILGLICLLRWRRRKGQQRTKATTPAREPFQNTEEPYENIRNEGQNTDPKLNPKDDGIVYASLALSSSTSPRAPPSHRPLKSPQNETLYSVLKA
- assay summary: flow cytometry on HEK293 PILRA R78 cells without sialidase treatment; without sialidase treatment
observation type: pEC50
pEC50 is a log-scale quantity: -log10 of the concentration expressed in molar.

Recorded results for 2 binders are shown here.
- Anti-PILRA antibody clone 7 (antibody, V domains shown) VH: EVQLQQSGPELQRPGASVKLSCKASGYTFTEYYMYWVKQRPKQGLELMGRIDPEDGGTDYVEKFKNKATLTADTSSNTAYMQLSSLTSEDTATYFCASTIRGTVFVYWGQGTLVTVSS VL: DIQMTQSPASLSASLGETVTIECRPSEDIYNGLAWYQQKPGESPQLLIYNANSLHTGVPSRFSGSGSGTQYSLKINSLQSEDVASYFCQQYYDYPLTFGSGTKLEIK: 9.15
- Anti-PILRA antibody clone 6 (antibody, V domains shown, the printed lines of the VL are out of order there) VH: EVQLQQSGPELQRPGASVKLSCKASGYTFTEYYMYWVKQRPKQGLELIGRIDPEDGGTDYIEKFKNKATLTADTSSNTAYMQLSSLTSEDTATYFCATTIRGTVFAFWGQGTLVTVSS VL: DIQMTQSPASLSASLGETVTIECRASEDIFNGLAWYQQKPGKSPHLLIYNAKTLHTGVPSRFSGSGSGSQYSLKINSLQSEDVASYFCQQYYDYPLTFGSGTKLEIK: 9.15

Query: pEC50 lookup needed for Anti-PILRA antibody clone 1 (antibody, V domains shown) VH: EVQLVESGGGLVQPGRSLRLSCAVSGFTFDDYAMHWVRQAPGKGLEWVSGFSWNSGSIGYPDSVKGRFTISRDNAKNSLYLQMNSLRAEDTAFYYCAKDKSISAAGRFDYWGQGTLVTVSS VL: DIQMTQSPSSLSASVGDRVTITCQASRRINNYLNWYQQKPGKAPKLLIYDASNLETGVPSRFTGSGSGTDFTLTISSLQPEDIATYYCQQYDNLPLTFGGGTKIKIK , thanks.
Response: 7.85

Query: pEC50 lookup needed for Anti-PILRA antibody clone 5 (antibody, human IgG1, kappa, L234A L235A, V domains shown, also called Ab; Clone 5; Ab.5) VH: QVQLVQSGAEVKKPGASVRVSCKASGYTFIGFYIHWVRQAPGQGLEWMGWINPESGDTTYAQKFQGRVTMTTDTSINTAYMDLNRLRSDDSAVYFCARGNWNFPDTFDFWGQGTMVIVSS VL: DIQMTQSPSSLSASVGDRVTITCRSSQSISIYLNWHQQIPGKAPKLLIYVASSLQSGIPSRFSGRGSGTEFTLTISSLQPEDFATYYCQQSYSAPFTFGPGTKVDIKR , thanks.
Response: 8.89
